Tested on: HCT-116 colon
Experiment: NCI tumour cell line growth inhibition, 48 h
Please provide measured TGI for the entries that follow.

QUERY: Give recorded TGI with HCT-116 colon for the following molecule: "O=C(O)c1cc2ccccc2c2c3c(ccc12)OCO3"
RESULT: > 1000 µM

QUERY: Notebook entry, HCT-116 colon assay: TGI of CN(C)C1(N(C)C)Oc2c(c(=O)n(C)c(=O)n2C)C(c2ccc(C(F)(F)F)cc2)C1(F)F (stereo not given) = ?
RESULT: > 100 µM

QUERY: Fill in the recorded TGI for this molecule, with HCT-116 colon as test system: CCOC(=O)Nc1sc2c(c1C#N)CC(C)CC2 (stereo not given)
RESULT: 25 µM

QUERY: HCT-116 colon / TGI / "CSc1ccc2c(c1)C(=O)c1c-2n(CCCN)c(=O)c2cc([N+](=O)[O-])ccc12" : value?
RESULT: 0.173 µM

QUERY: # returns recorded TGI (system: HCT-116 colon) for "CC(C)(C)OC(=O)NCCCCn1c2c(c3ccccc3c1=O)C(=O)c1ccccc1-2"
RESULT: > 100 µM

QUERY: Form entry - test system: HCT-116 colon; read-out: TGI; molecule: COc1ccc2c(c1)CC1COc3cc(OC)ccc3C1O2 (stereo not given)
RESULT: > 100 µM

QUERY: # returns recorded TGI (system: HCT-116 colon) for "CNCCCNC(=S)Cn1cc(C)c(=O)[nH]c1=O"
RESULT: > 68 µM

QUERY: Form: Entry = "O=C1CCCC/C1=C1/SC(=Nc2ccccc2)C(=Nc2ccccc2)N1c1ccccc1" | System = HCT-116 colon | TGI = ____
RESULT: > 100 µM

QUERY: Which measured TGI belongs to "NCCCOc1cc2ccccc2cc1C(=O)Nc1ccc(Cl)cc1OC(=O)c1cc2ccccc2cc1OCCCN" , tested on HCT-116 colon?
RESULT: 0.313 µM

QUERY: Request - read-out TGI | tested on HCT-116 colon | molecule "O=C1C[C@H](COCc2ccccc2)NC(=O)C[C@H](COCc2ccccc2)NC(=O)C[C@H](COCc2ccccc2)N1"
RESULT: > 100 µM

----------
Task for the reader: assign each of the following compounds its reported TGI.
Tested on: HS 578T breast
Assay: NCI tumour cell line growth inhibition, 48 h
Number only, in µM; omit the unit.

QUERY: Returns the measured TGI for the input compound. Input: "O=C(NCCc1ccccc1)Nc1ccc2cc3ccc(NC(=O)NCCc4ccccc4)cc3nc2c1"
RESULT: 0.933

QUERY: Which measured TGI value corresponds to "Cc1cccc(NC(=O)O/N=C(\Cl)C(C)C)c1" ?
RESULT: 63.7

----------
Test system: MDA-N
Experiment: NCI tumour cell line growth inhibition, 48 h
Hi there, I'd appreciate the recorded TGI for every entry that follows.

QUERY: Any idea what TGI was measured for O=C(O)C1OC1C(=O)O (stereo unspecified) ?
RESULT: > 100 µM

QUERY: Consider the compound "C=C1[C@H]2O[C@H]2[C@@H](OC(C)=O)[C@@]2(C)[C@@H](OC(C)=O)C[C@@H](OC(=O)CCC)[C@@](C)(O)[C@@H]2[C@@H](OC(C)=O)[C@]2(O)[C@@H](C)C(=O)O[C@H]2[C@H]1Cl" and give its measured TGI.
RESULT: > 100 µM

QUERY: I am curious: what TGI value has been reported for "C=C1CCCC(C)(C)[C@H]1C/C=C1\CCOC1=O" ?
RESULT: 33.3 µM

QUERY: Please look up its TGI: "CCOC(=O)c1nc2ccccc2nc1NCc1ccc(OC)c(OC)c1"
RESULT: > 100 µM

QUERY: What does the record list as TGI for "CNCCCNC(=S)Cn1cc(C)c(=O)[nH]c1=O" ?
RESULT: > 100 µM

QUERY: TGI lookup needed for COC(=O)C1CCC(=O)N1CN(C(C)=O)c1cc(OC)ccc1OC (stereo unspecified) , thanks.
RESULT: > 100 µM

QUERY: What value of TGI has been reported for the following compound? C=C(Cl)/C(=C\Cl)CCC(Cl)C(C)C (stereo unspecified)
RESULT: > 100 µM

QUERY: Quick check: TGI of "N#Cc1cc2c(cc1C#N)/C(=N\c1cccc(N)n1)N=C2Nc1cccc(N)n1" ?
RESULT: 59.6 µM

QUERY: // query TGI value for entry "O=C1c2c(Br)sc(Br)c2[C@@H](Cl)[C@H]1Cl"
RESULT: 40.3 µM

QUERY: Please give the measured TGI for this compound: CN1CC(c2ccccc2)C(O)(C2(c3ccccc3)CN(C)CC(c3ccccc3)C2=O)C(c2ccccc2)C1 (stereo unspecified)
RESULT: > 100 µM

QUERY: Entry "O=C(/C=C/c1ccc(OCc2ccccc2)cc1)NCc1ccc(C(=O)NCCc2c[nH]c3ccccc23)cc1" has what TGI?
RESULT: > 100 µM

QUERY: Query: TGI; subject: COC(=O)CN(CC(O)C(NC(C)=O)C(O)C=O)C(=O)OCc1ccccc1 (stereo unspecified)
RESULT: > 100 µM

QUERY: Look up TGI: "OC(c1ccc(Cl)cc1)(c1ccc(Cl)cc1)c1cncnc1"
RESULT: 37.7 µM

QUERY: May I ask what TGI has been recorded for "Cc1c[nH]c(C(=O)O)c1-c1cccn1-c1ccc(Cl)cc1[N+](=O)[O-]" ?
RESULT: > 100 µM

QUERY: I would be grateful if you could share the reported TGI for "c1ccc2c(c1)nn1c3ccc4nonc4c3[n-][n+]21" .
RESULT: > 100 µM

QUERY: What does the record list as TGI for "Cc1c2n(c3ccccc13)S(=O)(=O)c1ccccc1-2" ?
RESULT: > 100 µM

QUERY: Any idea what TGI was measured for "c1ccc(CN2CCc3[nH]c4ccccc4c3C2)cc1" ?
RESULT: 44 µM

QUERY: Which TGI reading was recorded for the compound "CC(=O)c1c(SCCN2CCOCC2)n(-c2ccccc2)c(=S)n(-c2ccccc2)c1=O" ?
RESULT: 47.9 µM

QUERY: Please look up its TGI: "C[C@@H]1[C@H](O)CC2=C(CC[C@@H](O)C2(C)C)[C@@]1(CO)CCc1ccoc1"
RESULT: > 50 µM

QUERY: Find the recorded TGI belonging to CC[C@@]1(OC(=O)C(N)CCCCN)C(=O)OCc2c1cc1n(c2=O)Cc2cc3ccccc3nc2-1 (stereo partly specified) and report it.
RESULT: 4.44 µM

QUERY: Entry "COc1ccc(C(=O)NC2=C(Cl)C(=O)c3ccccc3C2=O)cc1" has what TGI?
RESULT: 10.7 µM

This collection of values is drawn from PubChem BioAssay (NCI).
